Transcripts per million (rpm) values by entry
Tested on: L. acidophilus NCFM
Experiment: RNA-seq transcriptional analysis of L. acidophilus NCFM growing on plant glycosides
Assay type: cell-based, Lactobacillus acidophilus
Details: LBA1021 Putative transcriptional regulator, COG K
Report the figure in rpm without appending any unit label.

Below are worked cases with known answers.
{"smiles-entry": "N#C[C@H](O[C@@H]1O[C@H](CO[C@@H]2O[C@H](CO)[C@@H](O)[C@H](O)[C@H]2O)[C@@H](O)[C@H](O)[C@H]1O)c1ccccc1", "Transcripts per million (rpm)": 52.4}
{"smiles-entry": "OCc1ccccc1O[C@@H]1O[C@H](CO)[C@@H](O)[C@H](O)[C@H]1O", "Transcripts per million (rpm)": 108.6}
{"smiles-entry": "OC[C@H]1O[C@@H](O[C@H]2[C@H](O)[C@@H](O)[C@@H](O)O[C@@H]2CO)[C@H](O)[C@@H](O)[C@H]1O", "Transcripts per million (rpm)": 186.9}

Query compound follows.
Request: Need Transcripts per million (rpm), item `O=c1ccc2cc(O[C@@H]3O[C@H](CO)[C@@H](O)[C@H](O)[C@H]3O)c(O)cc2o1`
Response: 797.3

----------
Transcripts per million (rpm) values by entry
Test system: L. acidophilus NCFM
Test: RNA-seq transcriptional analysis of L. acidophilus NCFM growing on plant glycosides
Assay type: cell-based, Lactobacillus acidophilus
Details: gene LBA0861 (Polyferredoxin)

Below are worked cases with known answers.
{"molecule": "N#C[C@H](O[C@@H]1O[C@H](CO[C@@H]2O[C@H](CO)[C@@H](O)[C@H](O)[C@H]2O)[C@@H](O)[C@H](O)[C@H]1O)c1ccccc1 [Amygdalin]", "value-measured": "153 rpm"}
{"molecule": "OCc1ccccc1O[C@@H]1O[C@H](CO)[C@@H](O)[C@H](O)[C@H]1O [Salicin]", "value-measured": "196.3 rpm"}
{"molecule": "O=c1ccc2cc(O[C@@H]3O[C@H](CO)[C@@H](O)[C@H](O)[C@H]3O)c(O)cc2o1 [Esculin]", "value-measured": "785.8 rpm"}

Query molecule follows.
Request: Record OC[C@H]1O[C@@H](O[C@H]2[C@H](O)[C@@H](O)[C@@H](O)O[C@@H]2CO)[C@H](O)[C@@H](O)[C@H]1O [Lac] : what is its Transcripts per million (rpm) with L. acidophilus NCFM?
Response: 272.1 rpm

----------
Test system: L. acidophilus NCFM
Assay: RNA-seq transcriptional analysis of L. acidophilus NCFM growing on plant glycosides
Type: cell-based, Lactobacillus acidophilus
Conditions: LBA1482 Ribose ABC transporter, COG G
Log2 differential normalized TPM ratio compared to glucose values by entry
# output: bare number, no unit

Below are worked cases with known answers.
{"smiles-entry": "O=c1ccc2cc(O[C@@H]3O[C@H](CO)[C@@H](O)[C@H](O)[C@H]3O)c(O)cc2o1", "value-measured": 1}
{"smiles-entry": "OC[C@H]1O[C@@H](O[C@H]2[C@H](O)[C@@H](O)[C@@H](O)O[C@@H]2CO)[C@H](O)[C@@H](O)[C@H]1O", "value-measured": 1}

Request: Need Log2 differential normalized TPM ratio compared to glucose, item `OCc1ccccc1O[C@@H]1O[C@H](CO)[C@@H](O)[C@H](O)[C@H]1O`
Response: 0.7

Request: Need Log2 differential normalized TPM ratio compared to glucose, item `N#C[C@H](O[C@@H]1O[C@H](CO[C@@H]2O[C@H](CO)[C@@H](O)[C@H](O)[C@H]2O)[C@@H](O)[C@H](O)[C@H]1O)c1ccccc1`
Response: 3.4

----------
System: L. acidophilus NCFM
Experiment: RNA-seq transcriptional analysis of L. acidophilus NCFM growing on plant glycosides
Type: cell-based, Lactobacillus acidophilus
Conditions: gene LBA0328 (Hypothetical protein)
readout-name: Log2 differential normalized TPM ratio compared to glucose
# output: bare number, no unit

Below are worked cases with known answers.
{"smiles-entry": "N#C[C@H](O[C@@H]1O[C@H](CO[C@@H]2O[C@H](CO)[C@@H](O)[C@H](O)[C@H]2O)[C@@H](O)[C@H](O)[C@H]1O)c1ccccc1", "target": "L. acidophilus NCFM", "value-measured": "−0.3"}
{"smiles-entry": "O=c1ccc2cc(O[C@@H]3O[C@H](CO)[C@@H](O)[C@H](O)[C@H]3O)c(O)cc2o1", "target": "L. acidophilus NCFM", "value-measured": 1.9}
{"smiles-entry": "OC[C@H]1O[C@@H](O[C@H]2[C@H](O)[C@@H](O)[C@@H](O)O[C@@H]2CO)[C@H](O)[C@@H](O)[C@H]1O", "target": "L. acidophilus NCFM", "value-measured": "−0.1"}

Query molecule follows.
Request: Need Log2 differential normalized TPM ratio compared to glucose, item `OCc1ccccc1O[C@@H]1O[C@H](CO)[C@@H](O)[C@H](O)[C@H]1O`
Response: −0.1

----------
Tested on: L. acidophilus NCFM
Experiment: RNA-seq transcriptional analysis of L. acidophilus NCFM growing on plant glycosides
Format: cell-based, Lactobacillus acidophilus
Conditions: gene LBA1683 (Putative magnesium-transporting atpase)
readout-name: Transcripts per million (rpm)
Report the figure in rpm without appending any unit label.

Below are worked cases with known answers.
{"smiles-entry": "OCc1ccccc1O[C@@H]1O[C@H](CO)[C@@H](O)[C@H](O)[C@H]1O", "readout-name": "Transcripts per million (rpm)", "unit": "rpm", "value-measured": 20.2}
{"smiles-entry": "O=c1ccc2cc(O[C@@H]3O[C@H](CO)[C@@H](O)[C@H](O)[C@H]3O)c(O)cc2o1", "readout-name": "Transcripts per million (rpm)", "unit": "rpm", "value-measured": 20.5}
{"smiles-entry": "OC[C@H]1O[C@@H](O[C@H]2[C@H](O)[C@@H](O)[C@@H](O)O[C@@H]2CO)[C@H](O)[C@@H](O)[C@H]1O", "readout-name": "Transcripts per million (rpm)", "unit": "rpm", "value-measured": 14}

Request: Record `N#C[C@H](O[C@@H]1O[C@H](CO[C@@H]2O[C@H](CO)[C@@H](O)[C@H](O)[C@H]2O)[C@@H](O)[C@H](O)[C@H]1O)c1ccccc1` : what is its Transcripts per million (rpm) with L. acidophilus NCFM?
Response: 53.6

----------
System: L. acidophilus NCFM
Assay: RNA-seq transcriptional analysis of L. acidophilus NCFM growing on plant glycosides
Assay type: cell-based, Lactobacillus acidophilus
Details: LBA1481 D-ribose-binding protein precursor, COG G
readout-name: Log2 differential normalized TPM ratio compared to glucose
# output: bare number, no unit

Below are worked cases with known answers.
{"smiles-entry": "OCc1ccccc1O[C@@H]1O[C@H](CO)[C@@H](O)[C@H](O)[C@H]1O", "value-measured": 0.4}
{"smiles-entry": "O=c1ccc2cc(O[C@@H]3O[C@H](CO)[C@@H](O)[C@H](O)[C@H]3O)c(O)cc2o1", "value-measured": 0.9}
{"smiles-entry": "OC[C@H]1O[C@@H](O[C@H]2[C@H](O)[C@@H](O)[C@@H](O)O[C@@H]2CO)[C@H](O)[C@@H](O)[C@H]1O", "value-measured": 0.7}

Query compound follows.
Request: Record `N#C[C@H](O[C@@H]1O[C@H](CO[C@@H]2O[C@H](CO)[C@@H](O)[C@H](O)[C@H]2O)[C@@H](O)[C@H](O)[C@H]1O)c1ccccc1` : what is its Log2 differential normalized TPM ratio compared to glucose with L. acidophilus NCFM?
Response: 3

----------
Transcripts per million (rpm) values by entry
Test system: L. acidophilus NCFM
Experiment: RNA-seq transcriptional analysis of L. acidophilus NCFM growing on plant glycosides
Assay type: cell-based, Lactobacillus acidophilus
Conditions: LBA1485 Ribokinase, COG G
Report the figure in rpm without appending any unit label.

Below are worked cases with known answers.
{"smiles-entry": "OC[C@H]1O[C@@H](O[C@H]2[C@H](O)[C@@H](O)[C@@H](O)O[C@@H]2CO)[C@H](O)[C@@H](O)[C@H]1O", "Transcripts per million (rpm)": 5.2}
{"smiles-entry": "N#C[C@H](O[C@@H]1O[C@H](CO[C@@H]2O[C@H](CO)[C@@H](O)[C@H](O)[C@H]2O)[C@@H](O)[C@H](O)[C@H]1O)c1ccccc1", "Transcripts per million (rpm)": 29.8}
{"smiles-entry": "OCc1ccccc1O[C@@H]1O[C@H](CO)[C@@H](O)[C@H](O)[C@H]1O", "Transcripts per million (rpm)": 4.5}

Query compound follows.
Request: Need Transcripts per million (rpm), item `O=c1ccc2cc(O[C@@H]3O[C@H](CO)[C@@H](O)[C@H](O)[C@H]3O)c(O)cc2o1`
Response: 2.7

----------
Transcripts per million (rpm) values by entry
Tested on: L. acidophilus NCFM
Assay: RNA-seq transcriptional analysis of L. acidophilus NCFM growing on plant glycosides
Assay type: cell-based, Lactobacillus acidophilus
Conditions: LBA0329 Putative cell division protein, COG D
Report the figure in rpm without appending any unit label.

Below are worked cases with known answers.
{"smiles-entry": "OCc1ccccc1O[C@@H]1O[C@H](CO)[C@@H](O)[C@H](O)[C@H]1O", "target": "L. acidophilus NCFM", "value-measured": 22.1}
{"smiles-entry": "O=c1ccc2cc(O[C@@H]3O[C@H](CO)[C@@H](O)[C@H](O)[C@H]3O)c(O)cc2o1", "target": "L. acidophilus NCFM", "value-measured": 88.3}
{"smiles-entry": "N#C[C@H](O[C@@H]1O[C@H](CO[C@@H]2O[C@H](CO)[C@@H](O)[C@H](O)[C@H]2O)[C@@H](O)[C@H](O)[C@H]1O)c1ccccc1", "target": "L. acidophilus NCFM", "value-measured": 12.3}

Request: Need Transcripts per million (rpm), item `OC[C@H]1O[C@@H](O[C@H]2[C@H](O)[C@@H](O)[C@@H](O)O[C@@H]2CO)[C@H](O)[C@@H](O)[C@H]1O`
Response: 22.1
